study-target: Histone deacetylase 4 (Homo sapiens)
Sequence (P56524 whole entry): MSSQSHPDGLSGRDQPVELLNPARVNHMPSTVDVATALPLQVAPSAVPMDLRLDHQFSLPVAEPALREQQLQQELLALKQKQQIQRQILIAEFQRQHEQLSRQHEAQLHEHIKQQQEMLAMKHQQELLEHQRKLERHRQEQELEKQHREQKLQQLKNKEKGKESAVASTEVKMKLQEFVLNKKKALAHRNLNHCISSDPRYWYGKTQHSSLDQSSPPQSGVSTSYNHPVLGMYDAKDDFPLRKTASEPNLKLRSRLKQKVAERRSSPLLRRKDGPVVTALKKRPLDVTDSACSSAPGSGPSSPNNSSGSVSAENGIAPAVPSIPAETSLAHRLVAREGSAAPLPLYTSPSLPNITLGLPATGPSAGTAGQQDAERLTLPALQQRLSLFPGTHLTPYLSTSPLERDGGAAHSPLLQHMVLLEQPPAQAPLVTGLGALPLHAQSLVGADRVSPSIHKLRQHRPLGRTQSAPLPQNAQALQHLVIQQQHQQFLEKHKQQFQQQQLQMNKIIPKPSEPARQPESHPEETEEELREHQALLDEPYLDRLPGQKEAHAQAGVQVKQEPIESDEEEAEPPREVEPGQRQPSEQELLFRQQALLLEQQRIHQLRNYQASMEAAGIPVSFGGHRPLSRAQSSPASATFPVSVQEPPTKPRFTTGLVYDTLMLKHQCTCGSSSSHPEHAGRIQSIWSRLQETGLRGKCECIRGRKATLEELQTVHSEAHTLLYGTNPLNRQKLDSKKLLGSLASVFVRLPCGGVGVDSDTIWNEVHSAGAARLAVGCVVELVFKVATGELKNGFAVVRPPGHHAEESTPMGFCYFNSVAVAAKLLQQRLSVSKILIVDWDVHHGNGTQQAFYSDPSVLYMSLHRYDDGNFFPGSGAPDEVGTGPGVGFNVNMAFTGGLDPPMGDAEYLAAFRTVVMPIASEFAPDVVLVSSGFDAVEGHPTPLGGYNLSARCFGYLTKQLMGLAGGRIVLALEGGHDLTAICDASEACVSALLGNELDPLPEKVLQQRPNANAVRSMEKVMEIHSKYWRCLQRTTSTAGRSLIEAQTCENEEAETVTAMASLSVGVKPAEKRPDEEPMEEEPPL
measurement-description: Inhibition of recombinant full-length human HDAC4 using FAM-RHKK (trifluor-Ac)-NH2 as substrate by electrophoretic mobility shift assay
For each record, write down the corresponding pIC50.
Remember the convention: pIC50 equals -log10 of concentration in molar.

[Q] Consider the compound shown here: O=C(NO)c1ccc(Cn2ccc3cc(C(=O)NCC45C[C@H]6C[C@@H](C4)C[C@@H](C5)C6)ccc32)cc1 What is its recorded pIC50?
[A] 5.96

[Q] Consider the compound shown here: COc1cc(C(=O)NO)ccc1Cn1ccc2cc(C(=O)NCC34C[C@H]5C[C@@H](C3)C[C@@H](C4)C5)ccc21 What is its recorded pIC50?
[A] 5.52

[Q] Consider the compound shown here: O=C(NO)c1ccc(Cn2ccc3cc(C(=O)NCC45C[C@H]6C[C@@H](C4)C[C@@H](C5)C6)ccc32)c(F)c1 What is its recorded pIC50?
[A] 5.95

---

For each record, write down the corresponding pIC50.
study-target: Polyamine deacetylase HDAC10 (Homo sapiens)
Sequence (Q969S8 whole entry): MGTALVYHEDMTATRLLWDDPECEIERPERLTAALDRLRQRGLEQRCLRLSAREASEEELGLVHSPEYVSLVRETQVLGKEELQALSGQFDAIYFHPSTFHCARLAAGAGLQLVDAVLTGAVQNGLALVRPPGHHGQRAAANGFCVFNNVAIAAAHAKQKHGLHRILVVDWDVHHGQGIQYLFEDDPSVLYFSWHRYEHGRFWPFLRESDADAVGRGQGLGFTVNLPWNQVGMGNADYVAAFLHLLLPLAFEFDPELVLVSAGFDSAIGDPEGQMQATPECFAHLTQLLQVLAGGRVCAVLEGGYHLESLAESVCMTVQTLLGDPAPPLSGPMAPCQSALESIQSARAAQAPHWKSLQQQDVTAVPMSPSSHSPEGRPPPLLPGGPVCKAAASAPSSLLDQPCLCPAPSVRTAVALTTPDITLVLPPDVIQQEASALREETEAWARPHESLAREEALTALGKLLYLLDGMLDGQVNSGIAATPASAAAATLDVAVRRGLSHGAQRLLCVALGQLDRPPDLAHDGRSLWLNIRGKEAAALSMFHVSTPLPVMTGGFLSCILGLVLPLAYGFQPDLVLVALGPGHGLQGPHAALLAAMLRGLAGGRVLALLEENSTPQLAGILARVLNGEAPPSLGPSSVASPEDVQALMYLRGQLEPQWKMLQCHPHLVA
measurement-description: Inhibition of recombinant full-length human HDAC10 using FITC-H3K27(Ac)-NH2 as substrate by electrophoretic mobility shift assay
Remember the convention: pIC50 equals -log10 of concentration in molar.

[Q] Consider the molecule shown here: O=C(NCC12C[C@H]3C[C@@H](C1)C[C@@H](C2)C3)c1ccc2c(ccn2Cc2ccc(C(=O)NO)c(Cl)c2)c1 What is its recorded pIC50?
[A] 5.04

[Q] Consider the molecule shown here: O=C(NO)c1ccc(Cn2ccc3cc(C(=O)NCC45C[C@H]6C[C@@H](C4)C[C@@H](C5)C6)ccc32)c(F)c1 What is its recorded pIC50?
[A] 6.64

[Q] Consider the molecule shown here: O=C(NCC12C[C@H]3C[C@@H](C1)C[C@@H](C2)C3)c1ccc2c(ccn2Cc2ccc(C(=O)NO)c(F)c2)c1 What is its recorded pIC50?
[A] 6.22

[Q] Consider the molecule shown here: O=C(NCC12C[C@H]3C[C@@H](C1)C[C@@H](C2)C3)c1ccc2c(ccn2Cc2ccc(C(=O)NO)c(Br)c2)c1 What is its recorded pIC50?
[A] 5.05
